Data credit: patent US11084826B2

Experiment: Cytotoxicity in HeLa cells, ATP content measured with the ATPlite kit
Format: cell-based
Conditions: human, TOX HELA pCC50
Known CC50 at 3 days of a selection of compounds
ENDPOINT: CC50 at 3 days (µM)

[[record]]
compound = "CCc1cc(C(=O)N2CCCCCC2C)nc2nc(-c3ccc(NC(=O)NCC4CCCO4)cc3F)nn12 (stereo not shown) [Compound U1]"
endpoint = "CC50 at 3 days"
value_relation_sign = ">"
reported_value = 100

[[record]]
compound = "CCc1cc(C(=O)N2CCCCCC2C)nc2cc(-c3ccc4c(c3)CC(=O)N4C)nn12 (stereo not shown) [Compound A9]"
endpoint = "CC50 at 3 days"
value_relation_sign = ">"
reported_value = 25.1

[[record]]
compound = "C[C@@H]1c2ccccc2CCN1C(=O)c1cc(N2CCCC2)n2nc(-c3ccc(/C=C/C(=O)O)cc3F)cc2n1 [Compound M16]"
endpoint = "CC50 at 3 days"
value_relation_sign = "="
reported_value = 16.6

[[record]]
compound = "CCc1cc(C(=O)N2CCCCC[C@H]2C)nc2cc(-c3ccc4ccc(C(=O)O)nc4c3F)nn12 [Compound F45]"
endpoint = "CC50 at 3 days"
value_relation_sign = "="
reported_value = 91.2

[[record]]
compound = "CCc1cc(C(=O)N2CCCCCC2C)nc2cc(-c3ccc(NC(=O)OCC4CCCN4C)cc3F)nn12 (stereo not shown) [Compound C5]"
endpoint = "CC50 at 3 days"
value_relation_sign = "="
reported_value = 13.8

[[record]]
compound = "CCc1cc(C(=O)N2CCc3ccccc3C2C)nc2cc(-c3ccc(/C=C/C(=O)O)cc3F)nn12 (stereo not shown) [Compound M11]"
endpoint = "CC50 at 3 days"
value_relation_sign = ">"
reported_value = 25.1

[[record]]
compound = "CCc1cc(C(=O)N2CCCC3(CC=CC3)C2C)nc2cc(-c3ccc(-c4ccc(C(=O)O)cn4)cc3F)nn12 (racemic) [Compound F50]"
endpoint = "CC50 at 3 days"
value_relation_sign = "="
reported_value = 60.3


====

Assay: Cytotoxicity in HeLa cells, ATP content measured with the ATPlite kit
Assay type: cell-based
Conditions: human, TOX HELA pCC50
ENDPOINT: CC50 at 3 days

[[record]]
compound = "C[C@@H]1CCCCCN1C(=O)c1cc(C2(C)CC2)n2nc(-c3ccc4c(c3F)OCC(C(=O)O)=C4)cc2n1 (racemic) [Compound F51]"
reported_value = "57.5 µM"

[[record]]
compound = "CCc1cc(C(=O)N2CCCCCC2C)nc2cc(-c3ccc(/C=C/C(N)=O)cc3F)nn12 (stereo not drawn) [Compound N1]"
reported_value = "> 25.1 µM"

[[record]]
compound = "CCc1cc(C(=O)N2CCCCCC2C)nc2cc(-c3ccc(CCC(=O)O)cc3F)nn12 (stereo not drawn) [Compound Q1]"
reported_value = "> 25.1 µM"

[[record]]
compound = "CCc1cc(C(=O)N2CCCCCC2C)nc2cc(-c3ccc4ncccc4c3)nn12 (stereo not drawn) [Compound A11]"
reported_value = "> 25.1 µM"

[[record]]
compound = "CCc1cc(C(=O)N2CCCCCC2C)nc2cc(-c3ccc(NC(=O)CCC(=O)NC)cc3F)nn12 (stereo not drawn) [Compound E27]"
reported_value = "> 25.1 µM"

[[record]]
compound = "CCc1cc(C(=O)N2CCCCCC2C)nc2cc(-c3ccc(-c4cnn(C5CC5)c4)cc3F)nn12 (stereo not drawn) [Compound F12]"
reported_value = "> 25.1 µM"

[[record]]
compound = "CCc1cc(C(=O)N2CCn3nccc3C2C)nc2cc(-c3ccc(/C=C/C(=O)O)cc3F)nn12 (stereo not drawn) [Compound M41]"
reported_value = "> 25.1 µM"

[[record]]
compound = "CCc1cc(C(=O)N2CCn3c(C)ccc3C2C)nc2cc(-c3ccc(/C=C/C(=O)O)cc3F)nn12 (stereo not drawn) [Compound M42]"
reported_value = "> 25.1 µM"

[[record]]
compound = "CCc1cc(C(=O)N2CCCn3cccc3C2C)nc2cc(-c3ccc(-c4ccc(C(=O)O)cn4)cc3F)nn12 (racemic) [Compound F59]"
reported_value = "> 25.1 µM"

[[record]]
compound = "CC1c2ccsc2CCN1C(=O)c1cc(C2CC2)n2nc(-c3ccc(C4C[C@H]4C(=O)O)cc3F)cc2n1 (single isomer, unassigned) [Compound O20]"
reported_value = "52.5 µM"

[[record]]
compound = "CCc1cc(C(=O)N2CCCCC[C@H]2C)nc2cc(-c3ccc([C@H]4CC[C@H](C(=O)O)CC4)cc3F)nn12 [Compound F37]"
reported_value = "38 µM"

[[record]]
compound = "CCc1cc(C(=O)N2CCCCC[C@H]2C)nc2cc(-c3ccc(-n4cc(C(=O)O)c(Cl)n4)cc3F)nn12 [Compound W35]"
reported_value = "> 25.1 µM"

[[record]]
compound = "CCOc1cc(C(=O)N2CCCCC[C@H]2C)nc2cc(-c3ccc(/C=C/C(=O)O)cc3F)nn12 [Compound M24]"
reported_value = "> 100 µM"

[[record]]
compound = "CCc1cc(C(=O)N2CCn3c(Cl)ccc3C2C)nc2cc(-c3ccc(-c4ccc(C(=O)O)cn4)cc3F)nn12 (racemic) [Compound F56]"
reported_value = "> 100 µM"

[[record]]
compound = "CCc1cc(C(=O)N2CCCCCC2C)nc2cc(-c3ccc(-c4ncc(C)cn4)cc3F)nn12 (stereo not drawn) [Compound F17]"
reported_value = "> 25.1 µM"

